Biological target: human recombinant dopamine D4.2 receptor subtype (Homo sapiens, UniProt P21917, DEL265-296)
Sequence (P21917 with tags, fused parts or gaps DEL265-296): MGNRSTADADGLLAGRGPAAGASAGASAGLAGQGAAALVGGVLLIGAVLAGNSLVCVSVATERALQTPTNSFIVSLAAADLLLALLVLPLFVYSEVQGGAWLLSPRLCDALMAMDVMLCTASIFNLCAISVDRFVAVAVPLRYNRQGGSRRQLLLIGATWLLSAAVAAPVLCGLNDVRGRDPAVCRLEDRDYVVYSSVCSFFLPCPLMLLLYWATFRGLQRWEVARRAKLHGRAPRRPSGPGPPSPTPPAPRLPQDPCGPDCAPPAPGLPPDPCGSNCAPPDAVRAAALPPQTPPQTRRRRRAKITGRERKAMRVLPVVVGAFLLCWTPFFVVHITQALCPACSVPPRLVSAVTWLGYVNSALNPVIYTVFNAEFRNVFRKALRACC
Assay: Receptor binding assay, [3H]spiperone competition, D4.2
Details: read-out: D4 (Ki)
pKi: −log10 of the molar value.
# pKi >= 8 gives YES, anything below gives NO

Q. Does the molecule "NS(=O)(=O)c1ccc(N2CCN(Cc3ccc4c(c3)NC(=O)CO4)CC2)cc1" have recorded pKi that is 8 or more?
A. NO

Q. Does the molecule "O=C1COc2ccc(CN3CCN(c4ccccc4)CC3)cc2N1" have recorded pKi that is 8 or more?
A. NO

Q. Does the molecule "O=C1COc2ccc(CN3CCN(c4ccc(Cl)cc4)CC3)cc2N1" have recorded pKi that is 8 or more?
A. NO

Q. Does the molecule "Cc1ccc(C2CCN(Cc3ccc4c(c3)OCC(=O)N4)CC2)cc1C" have recorded pKi that is 8 or more?
A. YES

Q. Does the molecule "COc1ccc(N2CCN(Cc3ccc4c(c3)OCC(=O)N4)CC2)cc1" have recorded pKi that is 8 or more?
A. YES

Q. Does the molecule "Cc1ccc(C2CCN(Cc3ccc4c(c3)OCC(=O)N4)CC2)cc1" have recorded pKi that is 8 or more?
A. YES

Attribution: patent EP0906294B1
